tested on: HPPD polypeptides (wild-type SEQ ID NO:1 and mutants); settings: kapp in presence of 50 μM Cmpd. 1, normalised to kapp without inhibitor; low substrate concentration
Decide by Residual activity: equal to or exceeding 30% means Condition met, less means Condition not met.

Kindly determine if Residual activity recorded for 17 (protein, mutant HPPD polypeptide) MADLYENPMGLMGFEFIEFASPTPGTLEPIFEIMGFTKVATHRSKNVHLYRQGEINLILNNEPNSIASYFAAEHGPSVCGMAFRVKDSQKAYNRALELGAQPIHIDTGPMELNLPAIKGIGGAPLYLIDRFGEGSSIYDIDFVYLEGVERNPVGAGLKVIDHLTHNVYRGRMVYWANFYEKLFNFREARYFDIKGEYTGLTSKAMSAPDGMIRIPLNEESSKGAGQIEEFLMQFNGEGIQHVAFLTDDLVKTWDALKKIGMRFMTAPGDEYYEMLEGRLPDHGEPVDQLQARGILLDGSSVEGDKRLLLQIFSETLMGPVFFEFIQRKGDDGFGPDSFKVLFESVERDQVRRGVLTAD is above or exactly 30%.
Condition not met

# check: Residual activity of 19 (protein, mutant HPPD polypeptide) MADLYENPMGLMGFEFIEFASPTPGTLEPIFEIMGFTKVATHRSKNVHLYRQGEINLILNNEPNSIASYFAAEHGPSVCGMAFRVKDSQKAYNRALELGAQPIHIDTGPMELNLPAIKGIGGAPLYLIDRFGEGSSIYDIDFVYLEGVERNPVGAGLKVIDHLTHNVYRGRMVYWANFYEKLFNFREARYFDIKGEYTGLTSKAMSAPDGMIRIPLNEESSKGAGQIEEFLMQFNGEGIQHVAFLTDDLVKTWDALKKIGMRFRTAPGDEYYEMLEGRLPDHGEPVDQLQARGILLDGSSVEGDKRLLLQIFSETLMGPVFFEFIQRKGHDGFGPDSFKVLFESVERDQVRRGVLTAD is greater than or equal to 30%
Condition met

Entry 76 (protein, mutant HPPD polypeptide) MADLYENPMGLMGFEFIEFASPTPGTLEPIFEIMGFTKVATHRSKNVHLYRQGEINLILNNEPNSIASYFAAEHGPSVCGMAFRVKDSQKAYNRALELGAQPIHIDTGPMELNLPAIKGIGGAPLYLIDRFGEGSSIYDIDFVYLEGVERNPVGAGLKVIDHLTHNVYRGRMVYWANFYEKLFNFREARYFDIKGEYTGLTSKAMSAPDGMIRIPLNEESSKGAGQIEEFLMQFNGEGIQHVAFLTDDLVKTWDALKKIGMRFMTAPGDRYYEMLEGRLPDHGEPVDQLQARGILLDGSSVEGDKRLLLQIFSETLMGPVFFEFIQRKGDDGFGPDSFKVLFESVERDQVRRGVLTAD : is its Residual activity no less than 30%?
Condition not met

// inclusive: Residual activity at least 30%? input: 57 (protein, mutant HPPD polypeptide) MADLYENPMGLMGFEFIEFASPTPGTLEPIFEIMGFTKVATHRSKNVHLYRQGEINLILNNEPNSIASYFAAEHGPSVCGMAFRVKDSQKAYNRALELGAQPIHIDTGPMELNLPAIKGIGGAPLYLIDRFGEGSSIYDIDFVYLEGVERNPVGAGLKVIDHLTHNVYRGRMVYWANFYEKLFNFREARYFDIKGEYTGLTSKAMSAPDGMIRIPLNEESSKGAGQIEEFLMQFNGEGIQHVAFLTDDLVKTWDALKKIGMRFMTAPGDEYYEMLEGRLPDHGEPVDQLQARGILLDGSSVEGDKRLLLQIFSETLMGPVFFEFIQRKGDDGFGPDSFTVLFESVERDQVRRGVLTAD
Condition met

For this molecule, is measured Residual activity 30% or higher? 33 (protein, mutant HPPD polypeptide) MADLYENPMGLMGFEFIEFASPTPGTLEPIFEIMGFTKVATHRSKNVHLYRQGEINLILNNEPNSIASYFAAEHGPSVCGMAFRVKDSQKAYNRALELGAQPIHIDTGPMELNLPAIKGIGGAPLYLIDRFGEGSSIYDIDFVYLEGVERNPVGAGLKVIDHLTHNVYRGRMVYWANFYEKLFNFREARYFDIKGEYTGLTSKAMSAPDGMIRIPLNEESSKGAGQIEEFLMQFNGEGIQHVAFLTDDLVKTWDALKKIGMRFMTAPGDEYYEMLEGRLPDHGEPVDQLQARGILLDGSSVEGDKRLLLQIFSETLMGPVFFEFIQRKGDDGFGPDSFKRLFESVERDQVRRGVLTAD
Condition met

Quick check: does 89 (protein, mutant HPPD polypeptide) MADLYENPMGLMGFEFIEFASPTPGTLEPIFEIMGFTKVATHRSKNVHLYRQGEINLILNNEPNSIASYFAAEHGPSVCGMAFRVKDSQKAYNRALELGAQPIHIDTGPMELNLPAIKGIGGAPLYLIDRFGEGSSIYDIDFVYLEGVERNPVGAGLKVIDHLTHNVYRGRMVYWANFYEKLFNFREARYFDIKGEYTGLTSKAMSAPDGMIRIPLNEESSKGAGQIEEFLMQFNGEGIQHVAFLTDDLVKTWDALKKIGMRFMTAPGDEYYEMLEGRLPDHGEPVDQLQARGILLDGSSVEGDKRLLLQIFSETLMGPVFFEFIQRKGDDGFGPDSFKVLFESKERDQVRRGVLTAD have Residual activity greater than or equal to 30%?
Condition not met

In plain terms: is recorded Residual activity at least 30% for 38 (protein, mutant HPPD polypeptide) MADLYENPMGLMGFEFIEFASPTPGTLEPIFEIMGFTKVATHRSKNVHLYRQGEINLILNNEPNSIASYFAAEHGPSVCGMAFRVKDSQKAYNRALELGAQPIHIDTGPMELNLPAIKGIGGAPLYLIDRFGEGSSIYDIDFVYLEGVERNPVGAGLKVIDHLTHNVYRGRMVYWANFYEKLFNFREARYFDIKGEYTGLTSKAMSAPDGMIRIPLNEESSKGAGQIEEFLMQFNGEGIQHVAFLTDDLVKTWDALKKIGMRFMTAPGDEYYEMLEGRLPDHGEPVDQLQARGILLDGSSVEGDKRLLLQIFSETLMGPVFFEFIQRKGVDGFGPDSFKVLFESVERDQVRRGVLTAD ?
Condition met

The measurements presented in this section are drawn from patent US10597674B2.
